protocol details: Selectivity index, ratio of CC50 for human BEAS2B cells to IC50 for human HL60 cells
Type: toxicity
applied conditions: read-out: Ratio CC50/IC50
measure name: selectivity ratio

CCCC(=O)OC[C@H]1O[C@@H](OC(COCc2cn([C@@H]3c4cc5c(cc4[C@@H](c4cc(OC)c(OC)c(OC)c4)[C@H]4C(=O)OC[C@@H]43)OCO5)nn2)COCc2cn([C@@H]3c4cc5c(cc4[C@@H](c4cc(OC)c(OC)c(OC)c4)[C@H]4C(=O)OC[C@@H]43)OCO5)nn2)[C@H](OC(=O)CCC)[C@@H](OC(=O)CCC)[C@@H]1OC(=O)CCC (stereo partly specified) | 4.3

----------
system under test: Prostaglandin G/H synthase 2 (Mus musculus, UniProt Q05769, V509I)
Sequence (Q05769 18-604 V509I limits assumed): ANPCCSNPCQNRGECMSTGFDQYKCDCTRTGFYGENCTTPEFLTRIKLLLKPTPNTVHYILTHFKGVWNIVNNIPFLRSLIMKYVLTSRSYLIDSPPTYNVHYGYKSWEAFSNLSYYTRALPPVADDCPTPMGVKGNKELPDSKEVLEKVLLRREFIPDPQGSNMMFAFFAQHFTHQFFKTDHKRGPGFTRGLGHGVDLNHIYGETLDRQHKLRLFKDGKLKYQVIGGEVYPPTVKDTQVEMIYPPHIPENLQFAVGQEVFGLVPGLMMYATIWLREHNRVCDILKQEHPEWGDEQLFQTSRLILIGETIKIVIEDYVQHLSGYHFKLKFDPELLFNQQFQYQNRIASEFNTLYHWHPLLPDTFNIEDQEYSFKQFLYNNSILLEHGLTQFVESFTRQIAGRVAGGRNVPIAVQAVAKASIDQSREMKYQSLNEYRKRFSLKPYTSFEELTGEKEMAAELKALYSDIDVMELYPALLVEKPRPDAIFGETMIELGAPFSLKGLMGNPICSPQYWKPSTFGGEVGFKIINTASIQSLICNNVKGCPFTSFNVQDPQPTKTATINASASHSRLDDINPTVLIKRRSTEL
protocol details: Inhibition of mouse COX2 V523I mutant
pIC50: −log10 of the molar value.
measure name: pIC50

COc1ccc2c(c1)c(CC(=O)NCCCCNC(=O)CCC(=O)O[C@H]1c3cc4c(cc3[C@@H](c3cc(OC)c(OC)c(OC)c3)[C@H]3C(=O)OC[C@@H]31)OCO4)c(C)n2C(=O)c1ccc(Cl)cc1 | 7.05

----------
System: MCF7
protocol details: Cytotoxicity against human MCF7 cells by MTT assay
Format: functional, cell-based
pIC50: −log10 of the molar value.
measure name: pIC50

COc1cc([C@@H]2c3cc4c(cc3[C@@H](O[C@@H]3O[C@@H]5CO[C@@H](C)O[C@H]5[C@H](O)[C@H]3O)[C@H]3COC(=O)[C@H]23)OCO4)cc(OC)c1O [ETOPOSIDE] | 5.77
COc1cc([C@@H]2c3cc4c(cc3[C@@H](OCc3cn([C@@H]5O[C@H](COC(C)=O)[C@H](OC(C)=O)[C@H](OC(C)=O)[C@H]5OC(C)=O)nn3)[C@H]3COC(=O)[C@H]23)OCO4)cc(OC)c1OC | 5.90
COc1cc([C@@H]2c3cc4c(cc3[C@@H](n3cc(CO[C@@H]5O[C@H](CO[C@@H]6O[C@H](CO)[C@@H](O)[C@H](O)[C@H]6O)[C@@H](O)[C@H](O)[C@H]5O)nn3)[C@H]3COC(=O)[C@H]23)OCO4)cc(OC)c1OC | 6.17

----------
Test system: HepG2
protocol details: Antiproliferative activity against human HepG2 cells incubated for 72 hrs by MTT assay
Format: functional, cell-based
applied conditions: HepG2, 72 h
measure name: IC50 (nM)

COc1ccc(-c2coc3cc(OCCCC(=O)O[C@@H]4c5cc6c(cc5[C@@H](c5cc(OC)c(OC)c(OC)c5)[C@H]5C(=O)OC[C@@H]54)OCO6)ccc3c2=O)cc1 | 213
COc1ccc(-c2coc3cc(OCCCCC(=O)O[C@@H]4c5cc6c(cc5[C@@H](c5cc(OC)c(OC)c(OC)c5)[C@H]5C(=O)OC[C@@H]54)OCO6)ccc3c2=O)cc1 | 213
COc1ccc(-c2coc3cc(OCC(=O)O[C@@H]4c5cc6c(cc5[C@@H](c5cc(OC)c(OC)c(OC)c5)[C@H]5C(=O)OC[C@@H]54)OCO6)ccc3c2=O)cc1 | 213

----------
Tested on: HeLa
protocol details: Antiproliferative activity against human HeLa cells incubated for 72 hrs by MTT assay
Type: functional, cell-based
pIC50: −log10 of the molar value.
# pIC50 annotations
measure name: pIC50

COc1ccc(-c2coc3cc(OCC(=O)O[C@@H]4c5cc6c(cc5[C@@H](c5cc(OC)c(OC)c(OC)c5)[C@H]5C(=O)OC[C@@H]54)OCO6)ccc3c2=O)cc1 | 6.67
COc1ccc(-c2coc3cc(OCCCC(=O)O[C@@H]4c5cc6c(cc5[C@@H](c5cc(OC)c(OC)c(OC)c5)[C@H]5C(=O)OC[C@@H]54)OCO6)ccc3c2=O)cc1 | 6.67
COc1ccc(-c2coc3cc(OCCCCC(=O)O[C@@H]4c5cc6c(cc5[C@@H](c5cc(OC)c(OC)c(OC)c5)[C@H]5C(=O)OC[C@@H]54)OCO6)ccc3c2=O)cc1 | 6.67
